Entry source: patent US20210087281A1

# target.desc: T1, mouse MET-Fc (R&D Systems) (mouse, UniProt P16056 25-929, limits assumed)
# T1 construct: bought chimeric protein; also called mMET; not shown: Fc part
# protocol.notes: competition ELISA, mMET-Fc in solid phase, competitor 0.3 nM biotinylated mHGF
# Description: To investigate along this line, we tested the competition between mAbs and HGF by ELISA. Recombinant human and mouse HGF (R&D Systems) were biotinylated at the N-terminus using NHS-LC-biotin (Thermo Scientific). MET-Fc protein, either human or mouse (R&D Systems), was immobilized in solid phase and then exposed to 0.3 nM biotinylated HGF, either human or mouse, in the presence of increasing concentrations of antibodies (0-120 nM). […]
Recorded IC50 by entry

{"columns": ["binder", "IC50 [nM]"],
 "data": [
  ["71G3 chimeric llama-human IgG1 mAb (antibody, V domains shown, llama VH on human IgG1 CH1-CH2-CH3, llama VL on human lambda CL) VH: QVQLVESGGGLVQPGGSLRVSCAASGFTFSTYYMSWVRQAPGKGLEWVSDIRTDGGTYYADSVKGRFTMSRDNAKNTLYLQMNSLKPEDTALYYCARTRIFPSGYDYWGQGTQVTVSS VL: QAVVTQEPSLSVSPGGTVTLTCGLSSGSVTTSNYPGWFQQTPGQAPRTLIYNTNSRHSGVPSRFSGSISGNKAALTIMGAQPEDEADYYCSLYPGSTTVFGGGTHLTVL", 0.53],
  ["71G2 chimeric llama-human IgG1 mAb (antibody, V domains shown, llama VH on human IgG1 CH1-CH2-CH3, llama VL on human lambda CL) VH: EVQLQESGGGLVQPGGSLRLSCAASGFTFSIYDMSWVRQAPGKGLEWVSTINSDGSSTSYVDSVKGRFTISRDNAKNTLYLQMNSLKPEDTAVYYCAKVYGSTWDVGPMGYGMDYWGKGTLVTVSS VL: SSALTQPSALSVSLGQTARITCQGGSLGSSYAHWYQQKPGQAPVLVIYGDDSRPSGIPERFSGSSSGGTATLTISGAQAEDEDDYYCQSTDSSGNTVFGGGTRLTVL", 0.26],
  ["76H10 chimeric llama-human IgG1 mAb (antibody, V domains shown, llama VH on human IgG1 CH1-CH2-CH3, llama VL on human lambda CL) VH: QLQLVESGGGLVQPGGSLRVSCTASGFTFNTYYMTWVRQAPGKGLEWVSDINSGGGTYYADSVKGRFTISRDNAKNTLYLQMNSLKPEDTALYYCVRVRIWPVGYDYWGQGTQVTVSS VL: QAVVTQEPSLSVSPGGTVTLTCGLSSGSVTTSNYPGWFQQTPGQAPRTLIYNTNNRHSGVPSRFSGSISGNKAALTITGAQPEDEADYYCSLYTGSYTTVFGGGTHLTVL", 2.01],
  ["71D4 chimeric llama-human IgG1 mAb (antibody, V domains shown, llama VH on human IgG1 CH1-CH2-CH3, llama VL on human lambda CL) VH: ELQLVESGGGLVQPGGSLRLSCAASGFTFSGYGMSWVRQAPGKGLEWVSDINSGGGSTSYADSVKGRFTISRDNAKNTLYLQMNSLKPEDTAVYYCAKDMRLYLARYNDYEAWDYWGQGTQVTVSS VL: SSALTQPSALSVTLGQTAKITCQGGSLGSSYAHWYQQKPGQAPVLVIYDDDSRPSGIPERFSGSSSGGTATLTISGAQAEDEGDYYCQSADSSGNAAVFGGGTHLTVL", 0.4]
]}
